Test System: T1, HEN1 Δ38-45 (Arabidopsis thaliana, UniProt Q9C5Q8 1-37+=G+46-942, internal_change)
T1 sequence: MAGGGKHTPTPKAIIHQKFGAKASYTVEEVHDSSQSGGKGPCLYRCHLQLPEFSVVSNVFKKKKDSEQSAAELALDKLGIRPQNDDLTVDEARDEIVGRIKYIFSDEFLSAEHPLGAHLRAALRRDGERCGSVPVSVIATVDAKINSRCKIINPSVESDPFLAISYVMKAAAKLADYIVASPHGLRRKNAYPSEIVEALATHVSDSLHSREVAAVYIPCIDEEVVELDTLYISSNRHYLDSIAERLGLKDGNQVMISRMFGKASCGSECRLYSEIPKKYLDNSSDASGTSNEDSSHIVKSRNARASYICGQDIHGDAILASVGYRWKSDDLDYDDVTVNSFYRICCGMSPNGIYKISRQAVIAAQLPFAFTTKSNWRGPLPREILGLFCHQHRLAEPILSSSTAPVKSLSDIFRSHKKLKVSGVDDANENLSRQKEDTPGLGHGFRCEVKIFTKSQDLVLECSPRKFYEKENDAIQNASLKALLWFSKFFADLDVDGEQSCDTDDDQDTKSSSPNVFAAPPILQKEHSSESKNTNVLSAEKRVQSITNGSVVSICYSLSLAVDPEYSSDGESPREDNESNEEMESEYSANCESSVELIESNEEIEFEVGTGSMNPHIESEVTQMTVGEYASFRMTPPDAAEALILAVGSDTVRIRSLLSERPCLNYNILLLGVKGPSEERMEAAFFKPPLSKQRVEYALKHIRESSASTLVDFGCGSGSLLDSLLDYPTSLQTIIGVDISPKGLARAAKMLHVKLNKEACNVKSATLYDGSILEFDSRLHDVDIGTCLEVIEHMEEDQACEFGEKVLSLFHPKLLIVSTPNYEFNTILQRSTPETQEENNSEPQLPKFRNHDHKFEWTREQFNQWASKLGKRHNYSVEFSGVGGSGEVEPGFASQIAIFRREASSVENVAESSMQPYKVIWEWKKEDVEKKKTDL
Assay Protocol: EMSA
Observation Type: pKd
In plain terms, pKd is the concentration in mol/L turned into minus its base-10 logarithm.

Quick check: pKd of miR173/miR173* (dsRNA) RNA 1: UUCGCUUGCAGAGAGAAAUCAC RNA 2: GAUUCUCUGUGUAAGCGAAAG ?
9.10

Input miR173CH3/miR173*CH3 (dsRNA, 2'-O-methyl on 3'-terminal nucleotide of both strands) RNA 1: UUCGCUUGCAGAGAGAAAUCAC RNA 2: GAUUCUCUGUGUAAGCGAAAG
8.68
